Cited source for all entries: the supplement of paper PMC10724198

# Test system: Saccharomyces cerevisiae
# Assay Comment: protein stability index of tFT-peptide fusion (C-terminal peptide) (PSI (0-1 scale)); higher = more stable (slower turnover)
# Experimental Conditions: genetic background: wild type; temperature: 30 C
Label condition met for high-side protein stability index (at or above 0.7) and condition not met for low-side protein stability index (below it).

Req: API: above_or_equal(metric=protein stability index, cutoff=0.7) for item `AFGSVSLSCLWV`
Resp: condition not met

Req: API: above_or_equal(metric=protein stability index, cutoff=0.7) for item `NKKKYEIKLIME`
Resp: condition not met

Req: API: above_or_equal(metric=protein stability index, cutoff=0.7) for item `GGGSRLWGGGRV`
Resp: condition met

Req: API: above_or_equal(metric=protein stability index, cutoff=0.7) for item `RGPELDRRLPLC`
Resp: condition not met

Req: API: above_or_equal(metric=protein stability index, cutoff=0.7) for item `HPSPPAPAPLYP`
Resp: condition not met

Req: API: above_or_equal(metric=protein stability index, cutoff=0.7) for item `PWEYSSQLVLVI`
Resp: condition not met

Req: API: above_or_equal(metric=protein stability index, cutoff=0.7) for item `GRLKSTSTIRRF`
Resp: condition met

Req: API: above_or_equal(metric=protein stability index, cutoff=0.7) for item `FVWVVRMLVFVP`
Resp: condition not met

Req: API: above_or_equal(metric=protein stability index, cutoff=0.7) for item `LFLIYCFAFSIG`
Resp: condition not met

###

# System: Saccharomyces cerevisiae;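 also: PSI is a weighted mean of sequencing reads over stability bins, variants kept only with over 10 reads, mCherry proximal and sfGFP distal, peptide attached via GGGS linker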
# Assay Comment: protein stability index of tFT-peptide fusion (C-terminal peptide) (PSI (0-1 scale)); higher = more stable (slower turnover)
# Experimental Conditions: genetic background: wild type; temperature: 30 C
Label True for high-side protein stability index (at or above 0.7) and False for low-side protein stability index (below it).

Req: API: above_or_equal(metric=protein stability index, cutoff=0.7) for item `WVPCGYIERAPL`
Resp: False

Req: API: above_or_equal(metric=protein stability index, cutoff=0.7) for item `SLLFPLPRPLLD`
Resp: True

Req: API: above_or_equal(metric=protein stability index, cutoff=0.7) for item `HRARILLIRICP`
Resp: False

Req: API: above_or_equal(metric=protein stability index, cutoff=0.7) for item `FVGAEWLLFYFS`
Resp: False

Req: API: above_or_equal(metric=protein stability index, cutoff=0.7) for item `HPFARSLRSQIT`
Resp: True

Req: API: above_or_equal(metric=protein stability index, cutoff=0.7) for item `RPRNRRGGRGDE`
Resp: False

Req: API: above_or_equal(metric=protein stability index, cutoff=0.7) for item `HHVDLHLSLPSP`
Resp: False

Req: API: above_or_equal(metric=protein stability index, cutoff=0.7) for item `FRSFLDHPRSPC`
Resp: True

Req: API: above_or_equal(metric=protein stability index, cutoff=0.7) for item `ATPPPVRPSPIL`
Resp: False

Req: API: above_or_equal(metric=protein stability index, cutoff=0.7) for item `GATGGACGGWAG`
Resp: False

Req: API: above_or_equal(metric=protein stability index, cutoff=0.7) for item `VKSAAGPGRRSS`
Resp: False

Req: API: above_or_equal(metric=protein stability index, cutoff=0.7) for item `PPASPPAPRPPV`
Resp: True

Req: API: above_or_equal(metric=protein stability index, cutoff=0.7) for item `HQSISLSGAMLT`
Resp: False

Req: API: above_or_equal(metric=protein stability index, cutoff=0.7) for item `SRPRSPPPPPIT`
Resp: True

Req: API: above_or_equal(metric=protein stability index, cutoff=0.7) for item `CPFTDPRRQQSV`
Resp: False

Req: API: above_or_equal(metric=protein stability index, cutoff=0.7) for item `SLSLFYFRFFPF`
Resp: False

Req: API: above_or_equal(metric=protein stability index, cutoff=0.7) for item `AVCCKYFGESLF`
Resp: True

Req: API: above_or_equal(metric=protein stability index, cutoff=0.7) for item `KRKKKRRKETLY`
Resp: False

Req: API: above_or_equal(metric=protein stability index, cutoff=0.7) for item `LSLPPLRPPYPP`
Resp: False

Req: API: above_or_equal(metric=protein stability index, cutoff=0.7) for item `FMANRYICQKTL`
Resp: False

Req: API: above_or_equal(metric=protein stability index, cutoff=0.7) for item `GIVYFDQWISVS`
Resp: False

Req: API: above_or_equal(metric=protein stability index, cutoff=0.7) for item `FPPLTRPSPIYP`
Resp: True

Req: API: above_or_equal(metric=protein stability index, cutoff=0.7) for item `EPLGSGLQCTAG`
Resp: True

Req: API: above_or_equal(metric=protein stability index, cutoff=0.7) for item `VSKVGDMNSGSK`
Resp: False

Req: API: above_or_equal(metric=protein stability index, cutoff=0.7) for item `PESGPVRLRTPP`
Resp: False

Req: API: above_or_equal(metric=protein stability index, cutoff=0.7) for item `DSPTGLKFTQSL`
Resp: False

Req: API: above_or_equal(metric=protein stability index, cutoff=0.7) for item `GVFGLMVGWGWA`
Resp: False

Req: API: above_or_equal(metric=protein stability index, cutoff=0.7) for item `PRFFTRYRCYSA`
Resp: True

Req: API: above_or_equal(metric=protein stability index, cutoff=0.7) for item `PRYSLPTLLSSR`
Resp: False

Req: API: above_or_equal(metric=protein stability index, cutoff=0.7) for item `TCERGGQIKCRV`
Resp: False

Req: API: above_or_equal(metric=protein stability index, cutoff=0.7) for item `WNIVKHREDMLS`
Resp: False

Req: API: above_or_equal(metric=protein stability index, cutoff=0.7) for item `PPPPSLPPPLPF`
Resp: True

Req: API: above_or_equal(metric=protein stability index, cutoff=0.7) for item `GYILSFPSVGGW`
Resp: True

Req: API: above_or_equal(metric=protein stability index, cutoff=0.7) for item `LYSDLLTDDKNC`
Resp: False

Req: API: above_or_equal(metric=protein stability index, cutoff=0.7) for item `PSPFSPPPPSSP`
Resp: True

Req: API: above_or_equal(metric=protein stability index, cutoff=0.7) for item `IQAVHYTARVPN`
Resp: False

Req: API: above_or_equal(metric=protein stability index, cutoff=0.7) for item `YPFSLVLGVFAF`
Resp: False

Req: API: above_or_equal(metric=protein stability index, cutoff=0.7) for item `PGLAGGASQEGR`
Resp: False

Req: API: above_or_equal(metric=protein stability index, cutoff=0.7) for item `LTKPPHERREKS`
Resp: False

Req: API: above_or_equal(metric=protein stability index, cutoff=0.7) for item `ILFSILHLLSYL`
Resp: False

Req: API: above_or_equal(metric=protein stability index, cutoff=0.7) for item `DVAPPFLSFFVV`
Resp: False

Req: API: above_or_equal(metric=protein stability index, cutoff=0.7) for item `CLRGGGAGDGAS`
Resp: False

Req: API: above_or_equal(metric=protein stability index, cutoff=0.7) for item `AAVRGAYPDSEG`
Resp: False

Req: API: above_or_equal(metric=protein stability index, cutoff=0.7) for item `GSFFFFLAPSYF`
Resp: False

Req: API: above_or_equal(metric=protein stability index, cutoff=0.7) for item `LRLLYGYWGKFL`
Resp: False

Req: API: above_or_equal(metric=protein stability index, cutoff=0.7) for item `GRPYEHVVDPWR`
Resp: True

Req: API: above_or_equal(metric=protein stability index, cutoff=0.7) for item `LLFCFSVILFTC`
Resp: False

Req: API: above_or_equal(metric=protein stability index, cutoff=0.7) for item `KEARHCAQRKDI`
Resp: False

Req: API: above_or_equal(metric=protein stability index, cutoff=0.7) for item `VGDGLGWGGQGG`
Resp: False

Req: API: above_or_equal(metric=protein stability index, cutoff=0.7) for item `RFDFSVTPHLGF`
Resp: False

Req: API: above_or_equal(metric=protein stability index, cutoff=0.7) for item `RRLSRPPNLSRH`
Resp: False

Req: API: above_or_equal(metric=protein stability index, cutoff=0.7) for item `CRATYVGTGGRG`
Resp: False

Req: API: above_or_equal(metric=protein stability index, cutoff=0.7) for item `VPRSSGAILGFL`
Resp: False

Req: API: above_or_equal(metric=protein stability index, cutoff=0.7) for item `KRKEKAKRTKHV`
Resp: False

Req: API: above_or_equal(metric=protein stability index, cutoff=0.7) for item `GAWWRMEQAFGV`
Resp: True

Req: API: above_or_equal(metric=protein stability index, cutoff=0.7) for item `PPPPPPPPLPPP`
Resp: False

Req: API: above_or_equal(metric=protein stability index, cutoff=0.7) for item `AREEGRQNQGMP`
Resp: False

Req: API: above_or_equal(metric=protein stability index, cutoff=0.7) for item `RVGERVEGGGVV`
Resp: False

Req: API: above_or_equal(metric=protein stability index, cutoff=0.7) for item `SVSRTARELREV`
Resp: False

Req: API: above_or_equal(metric=protein stability index, cutoff=0.7) for item `VLGFRPLVFLCF`
Resp: False
